# measurement.protocol: In vitro Caco-2 permeability
# Format: in vitro ADME
# details: human, Caco-2
reported.property: Papp (A→B) (×10⁻⁶ cm/s)
Numbers only, in ×10⁻⁶ cm/s.

# input Would you mind telling me what Papp (A→B) value was observed for `O=c1cc(COc2cc(Cl)cc(Cl)c2)[nH][nH]1` ?
# output 37

---

# Test system: PC12 cells that express mutant G93A SOD1
# measurement.protocol: Mutant SOD1-induced cytotoxicity protection assay
# details: Rattus norvegicus, PC-12, read-out: Best EC50, PC12 G93A SOD1 cells, MG132, calcein-AM viability
# Method: This idea was tested by examining the sensitivity of PC12 cells to SOD1 aggregates in the presence and absence of proteasome inhibitor MG132. PC12 cells expressing no SOD1, wild type SOD1, G85R SOD1 or G93A SOD1 were grown with or without MG132 (FIG. 1). PC12 cells expressing G93A SOD1 were treated with 100 nM MG132 with or without co-treatment with geldanamycin or radicicol.
Could you please report measured pEC50 for the items listed next?
Numbers only, as −log10 of the molar value.

O=c1cc(COc2cc(Br)cc(Br)c2)[nH][nH]1 [CMB-087628-1] :: 5.81
O=c1cc(CSc2ccc(-c3ccccc3)cc2)[nH][nH]1 [CMB-086883-1] :: 5.03
CC(C)c1ccccc1SCc1cc(=O)[nH][nH]1 [CMB-086899-1] :: 6.40
CCc1ccc(S(=O)(=O)Cc2cc(=O)[nH][nH]2)cc1 [CMB-087210-1] :: 6.00
COc1ccc(SCc2cc(=O)[nH][nH]2)cc1 [CMB-086477-1] :: 5.38

Batch of 3 compounds: report pEC50 for each.
1. Cc1cc(SCc2cc(=O)[nH][nH]2)c(C)cc1Cl [CMB-003299]
2. CCc1ccccc1SCc1cc(=O)[nH][nH]1 [CMB-086901-1]
3. O=c1cc(COc2cc(F)cc(F)c2)[nH][nH]1 [CMB-087627-1]

# output
6.40
5.69
5.49

Batch of 8 compounds: report pEC50 for each.
1. O=c1cc(COc2cc(-c3ccccc3)cc(-c3ccccc3)c2)[nH][nH]1 [CMB-087644-1]
2. O=c1cc(CSc2ccc(F)cc2)[nH][nH]1 [CMB-086478-1]
3. Cc1ccc(C)c(SCc2cc(=O)[nH][nH]2)c1 [CMB-086479-1]
4. O=c1cc(COc2cccc(Br)c2)[nH][nH]1 [CMB-087642-1]
5. CCc1cccc(OCc2cc(=O)[nH][nH]2)c1 [CMB-087214-1]
6. CN(C)c1ccc(SCc2cc(=O)[nH][nH]2)cc1 [CMB-086476-1]
7. O=c1cc(CSc2ccc(Cl)cc2)[nH]n1-c1ccccc1 [CMB-086473-1]
8. O=c1cc(CSc2c(Cl)cccc2Cl)[nH][nH]1 [CMB-086480-1]

# output
[4.96, 5.33, 6.66, 5.51, 5.95, 5.78, 5.29, 6.59]

Batch of 6 compounds: report pEC50 for each.
1. O=c1cc(CSc2ccc([N+](=O)[O-])cc2)[nH][nH]1 [CMB-053528-1]
2. CCCCc1ccc(S(=O)(=O)Cc2cc(=O)[nH][nH]2)cc1 [CMB-087212-1]
3. O=c1cc(CSc2cccc(Cl)c2)[nH][nH]1 [CMB-086833-1]
4. CCc1ccc(OCc2cc(=O)[nH][nH]2)cc1 [CMB-087241-1]
5. CC(C)c1ccc(S(=O)(=O)Cc2cc(=O)[nH][nH]2)cc1 [CMB-087211-1]
6. Cn1[nH]c(COc2cc(Cl)cc(C(F)(F)F)c2)cc1=O [CMB-087264-1]

# output
[5.25, 6.00, 6.60, 5.48, 6.12, 5.18]
